Tested on: giant foxtail (Setaria faberii)
Test: Test A preemergence
Format: in vivo
Conditions: Setaria faberi, pre-emergence, 240 h, 31 g ai/ha, Preemergence; 0 to 100 scale where 0 is no effect and 100 is complete control; read-out: Foxtail, Giant plant response rating
Each item that follows carries a reported pest or weed control at 31 g/ha.
Hi! Could you send only the number? It should be in %, unit omitted.

Sample answers from the record:
| molecule | pest or weed control at 31 g/ha (%) |
| --- | --- |
| CN1C[C@H](c2ccc(Cl)c(F)c2)[C@@H](C(=O)Nc2cccc(F)c2F)C1=O [Compound 1265] | 90 |
| CN1C[C@H](c2ccc(C(F)(F)F)nc2)[C@@](C)(C(=O)Nc2ccc(F)c(F)c2F)C1=O [Compound 1110] | 90 |

Item: CN1C[C@H](c2cc(C(F)F)cs2)[C@@H](C(=O)Nc2cccc(C#N)c2F)C1=O [Compound 1093] | pest or weed control at 31 g/ha: 100

Item: CN1C[C@H](c2ccc3c(c2)OC(F)(F)O3)[C@@H](C(=O)Nc2cccnc2F)C1=O [Compound 1346] | pest or weed control at 31 g/ha: 90

Item: CN1C[C@H](c2ccc3ncccc3c2)[C@@H](C(=O)Nc2cccc(F)c2F)C1=O [Compound 1167] | pest or weed control at 31 g/ha: 0

Item: COc1c([C@H]2CN(C)C(=O)[C@@H]2C(=O)Nc2cccc(F)c2F)cccc1C(F)(F)F [Compound 1339] | pest or weed control at 31 g/ha: 80

The values you see were collected from patent US12077503B2.
